Reported IC50 values are given for each entry in this list.
- Test system: LB647-SCLC;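 note: cell growth inhibition, read out by a viability assay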
- Protocol: cells
- Assay type: functional, cell-based, Homo sapiens
- Condition Details: Homo sapiens, LB647-SCLC
- Description: SANGER: Inhibition of human LB647-SCLC cell growth in a cell viability assay.
Only the number, expressed in nM, is required.

Example compounds with recorded IC50:
OC[C@H](Cc1ccccc1)Nc1nc(Oc2ccc3c(c2)CCC3)nc2c1ncn2Cc1ccc(-c2ccccc2)cc1	5490
C/C(=C\c1csc(C)n1)[C@@H]1C[C@@H]2O[C@]2(C)CCC[C@H](C)[C@H](O)[C@@H](C)C(=O)C(C)(C)[C@@H](O)CC(=O)O1 [PATUPILONE]	3.1

Enquiry: Could you share which IC50 value was measured for COc1cc(N2CCC(N3CCN(C)CC3)CC2)ccc1Nc1ncc(Cl)c(Nc2ccccc2S(=O)(=O)C(C)C)n1 [TAE-684] ?
Return: 1350

====

Attribute: pIC50
- Tested on: D-392MG
- Protocol: cells
- Type: functional, cell-based
- Condition Details: Homo sapiens
pIC50: −log10 of the molar value.

Answered cases to consult:
Nc1ccccc1NC(=O)c1ccc(CNC(=O)OCc2cccnc2)cc1 [ENTINOSTAT]	< 5.30
CC1(C)CCC(c2ccc(Cl)cc2)=C(CN2CCN(c3ccc(C(=O)NS(=O)(=O)c4ccc(N[C@H](CCN5CCOCC5)CSc5ccccc5)c(S(=O)(=O)C(F)(F)F)c4)cc3)CC2)C1 [NAVITOCLAX]	< 5.70
NC(=O)Nc1cc(-c2cccc(F)c2)sc1C(=O)N[C@H]1CCCNC1 [AZD-7762]	6.34
COC(=O)[C@H](CCSC)NC(=O)c1ccc(NC[C@@H](N)CS)cc1-c1ccccc1	< 5.99
CCCCCCCCCCCC1=C(O)C(=O)C=C(O)C1=O [EMBELIN]	4.78

With those in mind, consider the next compound.
Enquiry: Bench note: what pIC50 did `O=S(=O)(O)c1ccc2cc(/N=N/c3cc(S(=O)(=O)O)c4cccnc4c3O)ccc2c1` show?
Return: < 4.80

====

- Tested on: OE33;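 note: growth inhibition of human OE33 cells, measured by a cell viability assay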
- Protocol: cells
- Assay type: functional, cell-based
- Condition Details: Homo sapiens
- Description: SANGER: Inhibition of human OE33 cell growth in a cell viability assay.
Reported Property: IC50

OC[C@H](Cc1ccccc1)Nc1nc(Oc2ccc3c(c2)CCC3)nc2c1ncn2Cc1ccc(-c2ccccc2)cc1	> 10.2 µM
CS(=O)(=O)N1CCN(Cc2cc3nc(-c4cccc5[nH]ncc45)nc(N4CCOCC4)c3s2)CC1	> 4 µM
CN(C)CCOc1ccc(-c2nc(-c3ccncc3)c(-c3ccc4c(c3)CC/C4=N\O)[nH]2)cc1	> 5 µM

Enquiry: # lookup: IC50 of `O=C(NCCCNc1nc(Nc2cccc(NC(=O)N3CCCC3)c2)ncc1I)c1cccs1`
Return: > 5 µM

Enquiry: What value of IC50 has been recorded for this entry: `C/C(=C\c1csc(C)n1)[C@@H]1C[C@@H]2O[C@]2(C)CCC[C@H](C)[C@H](O)[C@@H](C)C(=O)C(C)(C)[C@@H](O)CC(=O)O1`
Return: 0.00763 µM

Enquiry: Record request: IC50 value, item `CCCCCCCCCCCC1=C(O)C(=O)C=C(O)C1=O`
Return: 13.3 µM

====

- Test system: SU-DHL-1
- Protocol: SANGER: Inhibition of human SU-DHL-1 cell growth in a cell viability assay.
- Assay type: functional, cell-based
- Condition Details: Homo sapiens, SU-DHL-1
The following compounds are listed with their measured IC50 values.
Kindly provide the numeric value in nM only, without the unit symbol.

CC(C)C[C@H](NC(=O)[C@H](Cc1ccccc1)NC(=O)c1cnccn1)B(O)O	7.24

Enquiry: Look up IC50: `COc1cc(N2CCC(N3CCN(C)CC3)CC2)ccc1Nc1ncc(Cl)c(Nc2ccccc2S(=O)(=O)C(C)C)n1`
Return: 48.6

Enquiry: Reported IC50 for `C[C@@H](Oc1cc(-c2cnn(C3CCNCC3)c2)cnc1N)c1c(Cl)ccc(F)c1Cl` : what is it?
Return: 337

====

- System: RL95-2;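 note: RL95-2 growth inhibition determined through a cell viability readout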
- Protocol: cells
- Format: functional, cell-based, Homo sapiens
- Condition Details: Homo sapiens, RL95-2
- Description: SANGER: Inhibition of human RL95-2 cell growth in a cell viability assay.
Reported Property: pIC50
Worth noting: pIC50 values are minus log10 of concentrations stated in mol/L.

Cc1cc(N2CCOCC2)cc2[nH]c(-c3c(NC[C@@H](O)c4cccc(Cl)c4)cc[nH]c3=O)nc12	6.09

# context switch: different compound, same pIC50
Enquiry: Lab note: need pIC50 with RL95-2 for entry `COc1ccc(N(C(=O)Oc2c(C)cccc2C)c2ccnc(Nc3ccc(N4CCN(C)CC4)cc3)n2)c(OC)c1` , please look it up.
Return: 5.88

====

- Tested on: Calu-6;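 note: growth of human Calu-6 cells, read out by a cell viability assay, IC50 marking inhibition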
- Protocol: cells
- Assay type: functional, cell-based, Homo sapiens
- Condition Details: Homo sapiens, Calu-6
- Description: SANGER: Inhibition of human Calu-6 cell growth in a cell viability assay.
Where a SMILES comes first, the peptide text is derived from it. The star is where a group is joined. Cbz = O=C(OCc1ccccc1)*
Below is a list of entries, each paired with its recorded IC50 value.

Sample records with IC50:
COc1ccc(N(C(=O)Oc2c(C)cccc2C)c2ccnc(Nc3ccc(N4CCN(C)CC4)cc3)n2)c(OC)c1	> 5.12 µM
CC1=C(/C=C/C(C)=C/C=C/C(C)=C/C(=O)O)C(C)(C)CCC1	> 10 µM
CN(C)CCOc1ccc(-c2nc(-c3ccncc3)c(-c3ccc4c(c3)CC/C4=N\O)[nH]2)cc1	> 5 µM
NC(=O)Nc1cc(-c2cccc(F)c2)sc1C(=O)N[C@H]1CCCNC1	1.41 µM
Nc1ccccc1NC(=O)c1ccc(CNC(=O)OCc2cccnc2)cc1	> 5 µM
CC(C)C[C@@H](C=O)NC(=O)[C@H](CC(C)C)NC(=O)[C@H](CC(C)C)NC(=O)OCc1ccccc1 [MG-132] (Cbz-Leu-Leu-Leu-aldehyde)	> 1 µM
COc1cc(N2CCC(N3CCN(C)CC3)CC2)ccc1Nc1ncc(Cl)c(Nc2ccccc2S(=O)(=O)C(C)C)n1	> 2 µM
CC1(C)CCC(c2ccc(Cl)cc2)=C(CN2CCN(c3ccc(C(=O)NS(=O)(=O)c4ccc(N[C@H](CCN5CCOCC5)CSc5ccccc5)c(S(=O)(=O)C(F)(F)F)c4)cc3)CC2)C1	> 2 µM

Enquiry: # get_value(readout='IC50', item= `O=C1NC(=O)c2c1c(-c1ccccc1Cl)cc1[nH]c3ccc(O)cc3c21` )
Return: > 2 µM

Enquiry: Quick one: IC50 of `CS(=O)(=O)N1CCN(Cc2cc3nc(-c4cccc5[nH]ncc45)nc(N4CCOCC4)c3s2)CC1` ?
Return: > 4 µM

====

- System: SW1088
- Protocol: cells
- Assay type: functional, cell-based
- Condition Details: Homo sapiens
- Description: SANGER: Inhibition of human SW1088 cell growth in a cell viability assay.
pIC50 values for the compounds below.
pIC50 is defined as minus the log10 of a concentration measured in mol/L.

NC1(c2ccc(-c3nc4ccn5c(=O)[nH]nc5c4cc3-c3ccccc3)cc2)CCC1	5.71

Enquiry: Could you share what pIC50 was measured for `CS(=O)(=O)N1CCN(Cc2cc3nc(-c4cccc5[nH]ncc45)nc(N4CCOCC4)c3s2)CC1` , tested on SW1088?
Return: 5.60

Enquiry: # value lookup — system SW1088, readout pIC50, item `CN(NC(=O)CC(=O)NN(C)C(=S)c1ccccc1)C(=S)c1ccccc1`;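 note: growth inhibition of human SW1088 cells, read out by a cell viability assay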
Return: 7.09

Enquiry: Lab note: need pIC50 for `NC(=O)Nc1cc(-c2cccc(F)c2)sc1C(=O)N[C@H]1CCCNC1` on SW1088, anyone have it?
Return: 6.04

====

Recorded IC50 for the following molecules
- Tested on: EFM-19;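 note: growth inhibition of human EFM-19 cells, measured in a cell viability assay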
- Protocol: cells
- Type: functional, cell-based
- Condition Details: Homo sapiens
- Description: SANGER: Inhibition of human EFM-19 cell growth in a cell viability assay.
Your answer should be a plain number; it is taken to be in nM.

C/C(=C\c1csc(C)n1)[C@@H]1C[C@@H]2O[C@]2(C)CCC[C@H](C)[C@H](O)[C@@H](C)C(=O)C(C)(C)[C@@H](O)CC(=O)O1	10.6

Continue with the molecule presented below.
Enquiry: Bench note: what IC50 did `CS(=O)(=O)N1CCN(Cc2cc3nc(-c4cccc5[nH]ncc45)nc(N4CCOCC4)c3s2)CC1` show?
Return: 1620

====

- System: MSTO-211H
- Protocol: cells
- Format: functional, cell-based, Homo sapiens
- Condition Details: Homo sapiens, MSTO-211H
- Description: SANGER: Inhibition of human MSTO-211H cell growth in a cell viability assay.
pIC50: −log10 of the molar value.
List of pIC50 values.

Enquiry: What is its pIC50 for MSTO-211H? Entry: `NC(=O)Nc1cc(-c2cccc(F)c2)sc1C(=O)N[C@H]1CCCNC1`
Return: 6.52

Enquiry: // lookup pIC50 | system=MSTO-211H | key= `NC(=O)c1cccc(-c2cc(Nc3ccc(OC(F)(F)F)cc3)ncn2)c1`
Return: < 5.89

====

- Test system: K052;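 note: Read-out from a cell viability assay, IC50 reflecting suppression of K052 cell growth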
- Protocol: cells
- Type: functional, cell-based, Homo sapiens
- Condition Details: Homo sapiens, K052
- Description: SANGER: Inhibition of human K052 cell growth in a cell viability assay.
Reported Property: IC50

Observe how each entry below is paired with its result.
Cc1ccc(C(=O)Nc2ccc(CN3CCN(C)CC3)c(C(F)(F)F)c2)cc1C#Cc1cnc2cccnn12	> 512 nM
NC(=O)c1cccc(-c2cc(Nc3ccc(OC(F)(F)F)cc3)ncn2)c1	> 1280 nM

Enquiry: Given the entry `COc1cc(N2CCC(N3CCN(C)CC3)CC2)ccc1Nc1ncc(Cl)c(Nc2ccccc2S(=O)(=O)C(C)C)n1` , report its measured IC50.
Return: > 2000 nM

Enquiry: Entry `Cc1ccc(NC(=O)c2ccc(CN3CCN(C)CC3)cc2)cc1Nc1nccc(-c2cccnc2)n1` : reported IC50 = ?
Return: > 2000 nM

Enquiry: Any idea what IC50 was measured for `COC(=O)[C@H](CCSC)NC(=O)c1ccc(NC[C@@H](N)CS)cc1-c1ccccc1` ?
Return: > 1020 nM

Values from ChEMBL document CHEMBL1201861
